Target: hMAO-A (Homo sapiens)
Construct: purchased Sigma Aldrich; host or cells: BTI-TN-5B1-4 insect cells
Sequence (P21397 whole entry): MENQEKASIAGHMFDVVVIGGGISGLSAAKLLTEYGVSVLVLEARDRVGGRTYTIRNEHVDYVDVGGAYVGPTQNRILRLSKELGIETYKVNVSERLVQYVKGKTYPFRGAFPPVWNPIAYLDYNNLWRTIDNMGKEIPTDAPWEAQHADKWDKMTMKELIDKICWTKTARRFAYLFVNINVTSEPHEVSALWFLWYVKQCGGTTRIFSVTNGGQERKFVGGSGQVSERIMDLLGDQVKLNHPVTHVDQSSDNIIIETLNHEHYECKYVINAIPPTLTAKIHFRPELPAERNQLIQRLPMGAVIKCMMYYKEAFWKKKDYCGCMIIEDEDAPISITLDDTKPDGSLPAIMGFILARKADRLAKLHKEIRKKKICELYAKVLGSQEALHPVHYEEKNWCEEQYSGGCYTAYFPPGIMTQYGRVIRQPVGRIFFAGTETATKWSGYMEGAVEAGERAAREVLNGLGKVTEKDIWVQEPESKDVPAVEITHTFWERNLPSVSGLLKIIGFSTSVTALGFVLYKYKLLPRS
Test: HRP-Amplex Red coupled fluorimetric assay, hMAO-A
Type: biochemical
Settings: 0.25 h; residual activity at 100 µM compound; 15 min incubation at 37 °C; RA above 50% considered inactive; read-out: RA ± SD (%) at 100 µM, hMAO-A
Method: Inhibitory potencies against human (h)AChE and hBChE were determined using the Ellman method and inhibitory potencies against hMAO-A and hMAO-B were determined with horseradish peroxidase (HRP)-Amplex Red coupled assay. […] In brief, 100 µL 50 mM sodium phosphate buffer (pH 7.4, 0.05 vol.% Triton X-114) containing the compounds or the reference inhibitors and hMAO were incubated for 15 min at 37 °C. […] The fluorescence increase (λex = 530 nm, λem = 590 nm) at 37 °C was monitored for 20 min. […]
Quantity kind: remaining activity at 100 µM (%)

C#CCN1CCC(CCc2cccc(O)c2)CC1 [Compound 11]
63.3
C#CCN1CCC(CCc2cccc(OC(=O)Nc3ccccc3)c2)CC1 [Compound 13]
54
C#CCN1CCC(CCc2ccc(OC(=O)Nc3ccccc3)cc2)CC1 [Compound 12]
56.7
C#CCN1CCC(CCc2ccc(OC(=O)N(C)CC)cc2)CC1 [Compound 14]
51.2
C#CCN1CCC(CCc2ccc(OC)cc2)CC1 [Compound 7]
62.2
